tested system: IκBα ubiquitinating enzyme (SCF complex: ROC1, Cullin1, Skp1, His-TrCP1; with E1, UbcH5b) (Homo sapiens, UniProt P62877+P63208+Q13616+Q9Y297)
Construct: His (polyhistidine); made in house; host or cells: insect cells (baculovirus) for the SCF complex and His-E1; E. coli for His-UBCH5b
Sequence (Q9Y297 whole entry): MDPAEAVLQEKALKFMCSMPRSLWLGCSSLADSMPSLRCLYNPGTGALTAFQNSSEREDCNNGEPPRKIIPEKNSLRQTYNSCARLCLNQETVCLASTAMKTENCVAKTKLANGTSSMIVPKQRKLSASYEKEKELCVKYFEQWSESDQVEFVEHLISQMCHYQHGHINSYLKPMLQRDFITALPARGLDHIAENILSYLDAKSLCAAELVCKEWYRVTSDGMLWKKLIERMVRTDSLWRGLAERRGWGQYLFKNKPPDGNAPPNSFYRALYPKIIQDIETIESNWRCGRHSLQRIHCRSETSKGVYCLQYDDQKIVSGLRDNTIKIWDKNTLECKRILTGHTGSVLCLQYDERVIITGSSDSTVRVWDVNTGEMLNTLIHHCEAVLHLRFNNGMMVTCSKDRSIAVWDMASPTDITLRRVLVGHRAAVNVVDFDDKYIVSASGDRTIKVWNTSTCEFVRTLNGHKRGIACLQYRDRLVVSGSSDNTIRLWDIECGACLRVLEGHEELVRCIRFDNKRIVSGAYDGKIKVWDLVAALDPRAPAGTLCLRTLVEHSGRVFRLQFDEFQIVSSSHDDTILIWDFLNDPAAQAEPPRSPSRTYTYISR
Sequence (Q13616 whole entry): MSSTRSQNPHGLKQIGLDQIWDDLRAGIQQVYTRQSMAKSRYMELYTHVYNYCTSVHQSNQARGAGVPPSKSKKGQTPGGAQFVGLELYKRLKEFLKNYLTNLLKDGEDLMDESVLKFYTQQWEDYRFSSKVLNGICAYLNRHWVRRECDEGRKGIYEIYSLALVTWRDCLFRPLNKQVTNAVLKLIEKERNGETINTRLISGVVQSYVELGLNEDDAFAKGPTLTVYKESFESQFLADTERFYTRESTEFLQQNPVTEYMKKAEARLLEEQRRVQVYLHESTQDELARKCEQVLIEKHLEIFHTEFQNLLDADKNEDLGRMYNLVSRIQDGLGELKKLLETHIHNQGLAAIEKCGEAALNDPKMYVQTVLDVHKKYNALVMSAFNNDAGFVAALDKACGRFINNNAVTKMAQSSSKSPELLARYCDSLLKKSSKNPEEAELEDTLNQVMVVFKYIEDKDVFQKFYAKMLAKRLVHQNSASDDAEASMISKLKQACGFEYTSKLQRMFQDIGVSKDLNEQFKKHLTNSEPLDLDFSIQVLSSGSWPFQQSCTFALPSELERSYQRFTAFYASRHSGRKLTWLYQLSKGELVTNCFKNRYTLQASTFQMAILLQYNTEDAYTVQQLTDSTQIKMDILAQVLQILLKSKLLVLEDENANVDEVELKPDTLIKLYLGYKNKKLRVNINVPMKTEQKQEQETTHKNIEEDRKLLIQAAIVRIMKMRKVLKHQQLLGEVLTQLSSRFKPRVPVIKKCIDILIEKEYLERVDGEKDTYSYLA
Sequence (P63208 whole entry): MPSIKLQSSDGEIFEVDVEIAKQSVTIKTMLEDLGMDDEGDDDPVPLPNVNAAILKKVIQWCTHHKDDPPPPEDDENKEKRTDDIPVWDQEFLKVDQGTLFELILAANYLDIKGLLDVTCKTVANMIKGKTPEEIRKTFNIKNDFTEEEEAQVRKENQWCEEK
Sequence (P62877 whole entry): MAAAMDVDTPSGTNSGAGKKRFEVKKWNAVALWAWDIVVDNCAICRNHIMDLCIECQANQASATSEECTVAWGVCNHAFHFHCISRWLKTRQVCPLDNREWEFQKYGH
experiment notes: Measurement of ubiquitinating enzyme activity (IκBα ubiquitination, time-resolved fluorescence with Eu(K)-labeled ubiquitin and XL665-labeled anti-GST antibody)
Assay type: biochemical
experimental conditions: enzyme activity inhibition test, method (1), Table 5; read-out: EVALUATION
pIC50: −log10 of the molar value.
Some molecules, each annotated with its measured pIC50.

Value of measured pIC50 for the entry COCC1=NN(c2ccccc2)C(=O)/C1=C\c1ccc(-c2ccccc2F)o1 [Compound 6] : 4.70 to 5.00

Value of measured pIC50 for the entry CC1=NN(c2cccc(C(=O)O)c2)C(=O)/C1=C\c1ccc2c(ccn2C(=O)c2ccccc2)c1 [Compound 529] : > 5.00

Value of measured pIC50 for the entry CCCCC1=NN(c2ccc(C(=O)O)cc2)C(=O)/C1=C\c1ccc2[nH]ccc2c1 [Compound 474] : > 5.00

Value of measured pIC50 for the entry CC(=O)c1ccc(-c2ccc(/C=C3\C(=O)N(c4cccc(C(=O)O)c4)N=C3C)o2)cc1 [Compound 504] : 4.70 to 5.00

Value of measured pIC50 for the entry CC1=NN(c2cccc(C(=O)O)c2)C(=O)/C1=C\c1ccc(N2CCN(S(C)(=O)=O)CC2)cc1 [Compound 447] : > 5.00

###

tested system: IκBα ubiquitinating enzyme (SCF complex: ROC1, Cullin1, Skp1, His-TrCP1; with E1, UbcH5b) (Homo sapiens, UniProt P62877+P63208+Q13616+Q9Y297)
Construct: His (polyhistidine); made in house; host or cells: insect cells (baculovirus) for the SCF complex and His-E1; E. coli for His-UBCH5b
experiment notes: Measurement of ubiquitinating enzyme activity (IκBα ubiquitination, time-resolved fluorescence with Eu(K)-labeled ubiquitin and XL665-labeled anti-GST antibody)
Format: biochemical
experimental conditions: enzyme activity inhibition test, method (1), Table 5; read-out: EVALUATION
Some compounds, each annotated with its measured IC50.

Some compounds with known IC50 results, for comparison:
COc1cc(/C=C2\C(=O)N(c3ccc(C(=O)O)cc3)N=C2C)ccc1OCC1CCCCC1; 10 to 20 µM
COc1cccc(-c2ccc(/C=C3\C(=O)N(c4cccc(C(=O)O)c4)N=C3C)o2)c1; 10 to 20 µM
CC1=NN(c2ccc(S(N)(=O)=O)cc2)C(=O)/C1=C\c1ccc(N2CCN(c3ccc(F)cc3)CC2)cc1; < 10 µM
CC1=NN(c2ccc(C(=O)O)cc2)C(=O)/C1=C\c1ccc2occc2c1; < 10 µM
COc1cc(/C=C2\C(=O)N(c3ccc(C(=O)O)cc3)N=C2c2ccncc2)ccc1O; 10 to 20 µM

Value of measured IC50 for the entry "CC(=O)c1ccc(-c2ccc(/C=C3\C(=O)N(c4ccc(C(=O)O)cc4)N=C3C)o2)cc1" : < 10 µM

Value of measured IC50 for the entry "CC1=NN(c2ccc(S(N)(=O)=O)cc2)C(=O)/C1=C\c1ccc(Oc2ccccc2)cc1" : 10 to 20 µM

Value of measured IC50 for the entry "COCCNC(=O)c1cccc(N2N=C(C)/C(=C/c3ccc4c(c3)OCCO4)C2=O)c1" : < 40 µM
